- Tested on: NCI-H460
- Assay procedure: Growth inhibition of human NCI-H460 cells
- Format: functional

{"Molecule": "C=C1CCC[C@H]2[C@](C)(CCC(C)=O)[C@@H](C)CC[C@]12C", "Reading qualifier": ">", "GI50, nM": 15000}
{"Molecule": "CC(=O)CC/C=C(\\C)CCC1=C(C)CCCC1(C)C", "Reading qualifier": ">", "GI50, nM": 15000}
{"Molecule": "C=C1CCCC(C)(C)C1CC[C@]1(C)CC[C@@H]([C@@H](C)C(=O)O)OO1 (some centres undefined) [EPINUAPAPUIN B]", "Reading qualifier": ">", "GI50, nM": 10000}
{"Molecule": "C=C1CCCC(C)(C)C1CC[C@]1(C)CC[C@H]([C@@H](C)C(=O)OC)OO1 (some centres undefined) [NUAPAPUIN B]", "Reading qualifier": "=", "GI50, nM": 910}
{"Molecule": "C=C1CCC[C@H]2[C@](C)(CC[C@]3(C)CC[C@H]([C@@H](C)C(=O)O)OO3)[C@@H](C)CC[C@]12C [SIGMOSCEPTRELLIN A]", "Reading qualifier": "=", "GI50, nM": 1590}
{"Molecule": "COC(=O)[C@H](C)[C@H]1CC[C@@](C)(CCC2=C(C)CCCC2(C)C)OO1 [NUAPAPUIN A METHYL ESTER]", "Reading qualifier": ">", "GI50, nM": 25000}
{"Molecule": "CC1=C(CC/C(C)=C/CC[C@@]2(C)CC[C@H]([C@H](C)C(=O)O)OO2)C(C)(C)CCC1", "Reading qualifier": ">", "GI50, nM": 5000}
{"Molecule": "C=C1CCC[C@H]2[C@](C)(CC[C@]3(C)CC[C@@H]([C@@H](C)C(=O)O)OO3)[C@@H](C)CC[C@]12C [SIGMOSCEPTRELLIN C]", "Reading qualifier": "=", "GI50, nM": 600}
{"Molecule": "C=C1CCCC(C)(C)C1CCC1(C)CC[C@H]([C@@H](C)C(=O)O)OO1 (single isomer, unassigned) [NAPAPUIN B]", "Reading qualifier": "=", "GI50, nM": 1830}

The measured values listed here are drawn from ChEMBL document CHEMBL1141727.
